relative viability overview
tested on: HCC-15; experiment: relative viability (nuclei count vs DMSO), 5 days (fraction); higher = more cells survive; settings: first compound 1.265 µM

Worked cases, relative viability given:
compound	relative viability
Clc1ccc(Nc2nnc(Cc3ccncc3)c3ccccc23)cc1 [Vatalanib] + C[C@]1(O)C[C@@H](c2nc(-c3ccc4ccc(-c5ccccc5)nc4c3)c3c(N)nccn32)C1 [Linsitinib] (partner 1 µM)	0.87
Clc1ccc(Nc2nnc(Cc3ccncc3)c3ccccc23)cc1 [Vatalanib] + O=C(c1cc(Cc2n[nH]c(=O)c3ccccc23)ccc1F)N1CCN(C(=O)C2CC2)CC1 [Olaparib] (partner 8 µM)	0.684
Clc1ccc(Nc2nnc(Cc3ccncc3)c3ccccc23)cc1 [Vatalanib] + NC(=O)Nc1cc(-c2cccc(F)c2)sc1C(=O)N[C@H]1CCCNC1 [AZD7762] (partner 0.2 µM)	1.32
COc1cc(N2CCC(C(N)=O)CC2)ccc1Nc1nc(N)c(Cl)c(Nc2ccccc2S(=O)(=O)C(C)C)n1 [HG-5-88-01] + Nc1nc2[nH]cc(CCc3ccc(C(=O)N[C@@H](CCC(=O)O)C(=O)O)cc3)c2c(=O)[nH]1 [Pemetrexed] (partner 0.2 µM)	0.229
COc1cc(N2CCC(C(N)=O)CC2)ccc1Nc1nc(N)c(Cl)c(Nc2ccccc2S(=O)(=O)C(C)C)n1 [HG-5-88-01] + N=C(N)NC(=N)NCCc1ccccc1 [Phenformin] (partner 250 µM)	0.461

Task item: Bench note: what relative viability did COc1cc(N2CCC(C(N)=O)CC2)ccc1Nc1nc(N)c(Cl)c(Nc2ccccc2S(=O)(=O)C(C)C)n1 [HG-5-88-01] + CS(=O)(=O)CCNCc1ccc(-c2ccc3ncnc(Nc4ccc(OCc5cccc(F)c5)c(Cl)c4)c3c2)o1 [Lapatinib] (partner 2 µM) show?
Reply: 0.894

Task item: Param item = Clc1ccc(Nc2nnc(Cc3ccncc3)c3ccccc23)cc1 [Vatalanib] + Cc1nc(Nc2ncc(C(=O)Nc3c(C)cccc3Cl)s2)cc(N2CCN(CCO)CC2)n1 [Dasatinib] (partner 0.075 µM) ; retrieve measured relative viability.
Reply: 0.524

Task item: Return reported relative viability; argument: COc1cc(N2CCC(C(N)=O)CC2)ccc1Nc1nc(N)c(Cl)c(Nc2ccccc2S(=O)(=O)C(C)C)n1 [HG-5-88-01] + COc1cc2c(Oc3ccc(NC(=O)C4(C(=O)Nc5ccc(F)cc5)CC4)cc3F)ccnc2cc1OCCCN1CCOCC1 [Foretinib] (partner 0.25 µM)
Reply: 0.867

Task item: Given the entry COc1cc(N2CCC(C(N)=O)CC2)ccc1Nc1nc(N)c(Cl)c(Nc2ccccc2S(=O)(=O)C(C)C)n1 [HG-5-88-01] + NC(=O)Nc1cc(-c2cccc(F)c2)sc1C(=O)N[C@H]1CCCNC1 [AZD7762] (partner 0.2 µM) , report its measured relative viability.
Reply: 1.3
